Listing of recorded pIC50 by entry.
assay: Kit225 T Cell Assay, IL-23-stimulated STAT-dependent luciferase reporter; type: cell-based; conditions: Kit225 T cells, 20 ng/mL human recombinant IL-23, 5-6 hours, luciferase expression
pIC50: −log10 of the molar value.
PROPERTY LABEL: pIC50

[[record]]
compound = "CC1(C)CCCN1C(=O)c1ccc(Nc2cc(N[C@@H]3CCCC[C@H]3O)nn3c(C#N)cnc23)nc1 [Example 16]"
numeric_readout = 7.05

[[record]]
compound = "N#Cc1cnc2c(Nc3ccc(C(=O)NCC4CCCO4)c(OCC(F)F)n3)cc(NC3CCOCC3)nn12 (stereo not shown) [Example 45]"
numeric_readout = 6.13

[[record]]
compound = "CN(C(=O)c1ccc(Nc2cc(NC3CCOCC3)nn3c(C#N)cnc23)nc1OCC(F)F)C1COC1 [Example 44]"
numeric_readout = 6.62

[[record]]
compound = "N#Cc1cnc2c(Nc3ccc(C(=O)N4CCCC4C(F)(F)F)c(OCC(F)F)n3)cc(NC3CCOCC3)nn12 (stereo not shown) [Example 49]"
numeric_readout = 6.80

[[record]]
compound = "N#Cc1cnc2c(Nc3cccc(N4C(=O)NC5(CCCCC5)C4=O)n3)cc(N[C@@H]3CCCC[C@H]3O)nn12 [Example 58]"
numeric_readout = 6.26

[[record]]
compound = "COc1ccc(Nc2cc(NC34CC5CC(O)(CC(O)(C5)C3)C4)nn3c(C#N)cnc23)nc1NC(=O)C(C)(C)C [Example 21]"
numeric_readout = 6.37

[[record]]
compound = "N#Cc1cnc2c(Nc3cccc(N4CCN(CCO)CC4)n3)cc(N[C@@H]3CCCC[C@H]3O)nn12 [Example 55]"
numeric_readout = 6.28


###

# IC50 values compiled below
assay: Kit225 T Cell Assay, IL-23-stimulated STAT-dependent luciferase reporter; format: cell-based; conditions: Kit225 T cells, 20 ng/mL human recombinant IL-23, 5-6 hours, luciferase expression
PROPERTY LABEL: IC50 (µM)

[[record]]
structure_as_smiles = "CN(C)c1nc(Nc2cc(N[C@@H]3CCCC[C@H]3O)nn3c(C#N)cnc23)ccc1C(=O)N1CCN(c2ccccc2F)CC1"
unit_symbol = "µM"
numeric_readout = 0.39

[[record]]
structure_as_smiles = "CC(=O)NCc1ccc(-c2cccc(Nc3cc(NC4CCOCC4)nn4c(C#N)cnc34)n2)cc1"
unit_symbol = "µM"
numeric_readout = 1.1

[[record]]
structure_as_smiles = "N#Cc1cnc2c(Nc3cccc(N4CCCCCC4=O)n3)cc(N[C@@H]3CCCC[C@H]3O)nn12"
unit_symbol = "µM"
numeric_readout = 0.66

[[record]]
structure_as_smiles = "C[C@@H](NC(=O)c1cccc(Nc2cc(NC34CC5CC(CC(O)(C5)C3)C4)nn3c(C#N)cnc23)n1)C(F)(F)F"
unit_symbol = "µM"
numeric_readout = 0.11

[[record]]
structure_as_smiles = "N#Cc1cnc2c(Nc3cccc(NC(=O)C4CC4)n3)cc(NCC3CC3)nn12"
unit_symbol = "µM"
numeric_readout = 0.31

[[record]]
structure_as_smiles = "CC(C)(C)Oc1nc(Nc2cc(N[C@H]3CCCC[C@@H]3O)nn3c(C#N)cnc23)ccc1C(=O)N1CCCC1"
unit_symbol = "µM"
numeric_readout = 1.13

[[record]]
structure_as_smiles = "CC(C)(C)CNc1cc(Nc2cccc(NC(=O)C3CC3)n2)c2ncc(C#N)n2n1"
unit_symbol = "µM"
numeric_readout = 0.26

[[record]]
structure_as_smiles = "CC(C)(C)C(=O)Nc1cccc(Nc2cc(NCC3CC3)nn3c(C#N)cnc23)n1"
unit_symbol = "µM"
numeric_readout = 0.9

[[record]]
structure_as_smiles = "CC(C)(C)Oc1nc(Nc2cc(NC3CCOCC3)nn3c(C#N)cnc23)ccc1C(=O)N1CCCC1"
unit_symbol = "µM"
numeric_readout = 0.7

[[record]]
structure_as_smiles = "CC1(C)CCCN1C(=O)c1ccc(Nc2cc(N[C@H]3CCCC[C@@H]3O)nn3c(C#N)cnc23)nc1"
unit_symbol = "µM"
numeric_readout = 0.56

[[record]]
structure_as_smiles = "N#Cc1cnc2c(Nc3cccc(C(F)(F)F)n3)cc(NC34CC5CC(O)(CC(O)(C5)C3)C4)nn12"
unit_symbol = "µM"
numeric_readout = 0.44

[[record]]
structure_as_smiles = "CC(C)(O)C(=O)Nc1cccc(Nc2cc(N[C@@H]3CCCC[C@H]3O)nn3c(C#N)cnc23)n1"
unit_symbol = "µM"
numeric_readout = 0.22

[[record]]
structure_as_smiles = "CC(=O)NCc1ccc(-c2cccc(Nc3cc(N[C@@H]4CCCC[C@H]4O)nn4c(C#N)cnc34)n2)cc1"
unit_symbol = "µM"
numeric_readout = 0.47

[[record]]
structure_as_smiles = "CC(C)Oc1nc(Nc2cc(NC3CCOCC3)nn3c(C#N)cnc23)ccc1C(=O)N1CCCC1"
unit_symbol = "µM"
numeric_readout = 0.16

[[record]]
structure_as_smiles = "N#Cc1cnc2c(Nc3ccc(C(=O)N4C[C@H]5CC[C@@H]4C5)c(OCC(F)F)n3)cc(N[C@@H]3CCCC[C@H]3O)nn12"
unit_symbol = "µM"
numeric_readout = 0.43

